Tested on: HepG2
Test: cytotoxicity call (relative viability < 0.9)
Conditions: 10 µM
Screen size: about 39,000 compounds; about 3,300 (8.5%) were called active. The sample holds actives, similar compounds and a random draw of the others, so the mix is not that of the screen.
Write down one outcome, taken from label 1 = active, label 0 = inactive

Name the outcome recorded for "C=CC[C@@H](CC(=O)N[C@@H](CO)Cc1ccccc1)C(=O)NC[C@@H](OC(=O)[C@@H](CC=C)Cc1ccc(F)cc1)c1ccccc1" in the assay.
label 0

Record: "Cc1noc(C)c1NC(=O)N(C)C[C@@H]1Oc2c(NC(=O)Nc3cccc4ccccc34)cccc2C(=O)N([C@H](C)CO)C[C@@H]1C"
label 0

Record: "C=CCC[C@H](Cc1ccc(F)cc1)C(=O)O[C@@H](CNC(=O)[C@@H](CC=C)CC(=O)N[C@H](CO)Cc1ccccc1)c1ccccc1"
label 0

Continue with the next compound.
Name the outcome recorded for "C[C@@H]1CN([C@H](C)CO)C(=O)Cc2cc(NS(=O)(=O)c3ccc(F)cc3)ccc2O[C@@H]1CN(C)Cc1ccc(Cl)c(Cl)c1" in the assay.
label 1

###

System: HepG2
Assay: cytotoxicity call (relative viability < 0.9)
Settings: 10 µM
Hit rate of the full screen: of about 39,000 compounds, about 3,300 (8.5%) were called active. The entries come from a sample that favours actives as a whole.
Write down one outcome, taken from 1 (active), 0 (inactive)

Some solved entries appear below for comparison.
Name the outcome recorded for "C[C@@H]1CN([C@@H](C)CO)C(=O)c2c(c3ccccc3n2C)-c2ccccc2CO[C@@H]1CN(C)C(=O)NC1CCCCC1" in the assay.
0

Record: "Cc1noc(C)c1NC(=O)Nc1ccc2c(c1)CC(=O)N([C@@H](C)CO)C[C@H](C)[C@@H](CN(C)S(C)(=O)=O)O2"
0

Further cases:
Name the outcome recorded for "O=C1CN(S(=O)(=O)Cc2ccccc2)C[C@@H]2[C@@H](c3ccc(C#Cc4cccc(F)c4)cc3)[C@@H](CO)N12" in the assay.
1

Record: "O=C1CN(S(=O)(=O)Cc2ccccc2)C[C@@H]2[C@H](c3ccc(C#Cc4ccc(F)cc4)cc3)[C@H](CO)N12"
0

Record: C=CC(C)(O)CCC=C(C)C (configuration not stated)
0

###

System: HepG2
Assay: cytotoxicity call (relative viability < 0.9)
Conditions: 10 µM
Screen size: about 39,000 compounds; about 3,300 (8.5%) were called active. This is one part of a sample in which actives are shown more often than they occur.
Write down one outcome, taken from active, inactive

Name the outcome recorded for "C[C@H](CO)N1C[C@H](C)[C@@H](CN(C)C(=O)NC2CCCCC2)OCCCC[C@H](C)Oc2ccc(NC(=O)NC3CCCCC3)cc2C1=O" in the assay.
inactive

Record: "C[C@@H]1COC(=O)[C@@H](NC(=O)OCC2c3ccccc3-c3ccccc32)CC=CC[C@H](CC(=O)NCCO)C(=O)N1"
inactive

Further cases:
Name the outcome recorded for "COc1ccc(-n2cc(C(=O)NO)nn2)cc1" in the assay.
active

Record: CC(O)C1C(=O)N2C(C(=O)O)=C(SC3CNC(C(=O)N(C)C)C3)C(C)C12 (centres undefined)
inactive

Record: "C[C@H](CO)N1C[C@H](C)[C@H](CN(C)S(=O)(=O)c2cn(C)cn2)Oc2ccc(NS(=O)(=O)c3cn(C)cn3)cc2CC1=O"
inactive

Record: "COc1cccc(-n2cc(C(=O)NO)nn2)c1"
inactive

Record: "COc1ccc(NC(=O)Nc2cccc3c2O[C@@H](CN(C)C(=O)Nc2ccc(C(F)(F)F)cc2)[C@@H](C)CN([C@@H](C)CO)C3=O)cc1"
inactive

Record: "C[C@H]1CN([C@@H](C)CO)C(=O)Cc2cc(NS(=O)(=O)c3cn(C)cn3)ccc2O[C@@H]1CN(C)Cc1ccccc1"
inactive

Record: "COC(=O)c1ccc(Cn2cc(C(=O)NO)nn2)o1"
inactive

###

Test system: HepG2
Experiment: cytotoxicity call (relative viability < 0.9)
Details: 10 µM
In all, about 39,000 compounds went through this assay and about 3,300 (8.5%) were called active. The sample holds actives, similar compounds and a random draw of the others, so the mix is not that of the screen.
Write down one outcome, taken from YES (active), NO (inactive)

Name the outcome recorded for "Cc1noc(C)c1S(=O)(=O)N(C)C[C@H]1Oc2ccc(NC(=O)Nc3ccc4c(c3)OCO4)cc2C(=O)N([C@@H](C)CO)C[C@H]1C" in the assay.
NO

Record: "O=S(=O)(O)NC1CCCCC1"
NO

Record: "C[C@H](CO)N1C[C@H](C)[C@@H](CN(C)Cc2ccncc2)Oc2cc(C#CC(C)(C)O)ccc2S1(=O)=O"
NO

Record: "CC1(C)C=C(C(=O)N2CCOCC2)C(C)(C)N1"
NO

Record: "CNC(=O)c1c(F)cccc1Nc1nc(Nc2cc3c(cc2OC)CCN3C(=O)CN(C)C)nc2[nH]ccc12"
YES

Further cases:
Name the outcome recorded for "C[C@@H]1CN([C@H](C)CO)C(=O)c2cccc(NC(=O)c3nc4ccccc4s3)c2O[C@H]1CN(C)C(=O)Nc1ccc(F)cc1" in the assay.
NO

Record: "C[C@H](CO)N1C[C@H](C)[C@@H](CN(C)CC2CCCCC2)Oc2ccc(NC(=O)Cc3cn(C)c4ccccc34)cc2C1=O"
NO

Record: "COc1cccc(NC(=O)N2C[C@H](O)COC[C@@H]3O[C@@H](CC(=O)NCc4ccccc4F)CC[C@H]32)c1"
NO

Record: "CN1CCC(Nc2nc(Nc3ccc(Oc4ccccc4)cc3)c3c(O)ncc(Br)c3n2)CC1"
YES

###

Tested on: HepG2
Experiment: cytotoxicity call (relative viability < 0.9)
Conditions: 10 µM
Hit rate of the full screen: of about 39,000 compounds, about 3,300 (8.5%) were called active. For the sample, actives were picked, then their nearest neighbours and some compounds at random.
Write down one outcome, taken from true for active, false for inactive

Some solved entries appear below for comparison.
Name the outcome recorded for "C[C@H]1CN([C@@H](C)CO)C(=O)Cc2cc(NC(=O)C3CC3)ccc2O[C@@H]1CN(C)S(=O)(=O)c1cccs1" in the assay.
false

Record: "Cc1noc(C)c1NC(=O)Nc1ccc2c(c1)C(=O)N([C@H](C)CO)C[C@H](C)[C@@H](CN(C)C(=O)NC1CCCCC1)OCCCC[C@H](C)O2"
false

Record: "C[C@@H]1CCCCO[C@@H](CN(C)S(=O)(=O)c2ccc(Cl)cc2)[C@H](C)CN([C@H](C)CO)C(=O)c2cc(NC(=O)Nc3ccc(F)cc3)ccc2O1"
true

Further cases:
Name the outcome recorded for "C[C@H]1CCCCO[C@H](CN(C)S(=O)(=O)c2ccc(Cl)cc2)[C@@H](C)CN([C@@H](C)CO)C(=O)c2cc(NC(=O)Nc3ccc(F)cc3)ccc2O1" in the assay.
false

Record: "CN(C)Cc1cn(CC[C@H]2CC[C@@H](NS(=O)(=O)c3ccccc3)[C@@H](CO)O2)nn1"
false

Record: "C[C@@H]1CCCCO[C@H](CN(C)S(=O)(=O)c2ccc(Cl)cc2)[C@@H](C)CN([C@H](C)CO)C(=O)c2cc(NC(=O)Nc3ccc(F)cc3)ccc2O1"
false

Record: "C[C@H](CO)N1C[C@H](C)[C@@H](CN(C)S(=O)(=O)c2ccc(Cl)cc2)OCCCC[C@H](C)Oc2ccc(NC(=O)Nc3ccc(F)cc3)cc2C1=O"
false

Record: "COCC(=O)N(C)C[C@@H]1Oc2cc(C#Cc3cccnc3)ccc2S(=O)(=O)N([C@H](C)CO)C[C@@H]1C"
false

Record: "C[C@@H]1CN([C@@H](C)CO)S(=O)(=O)c2ccc(C#CC3CCCCC3)cc2O[C@H]1CN(C)C(=O)Cc1ccncc1"
false

###

Tested on: HepG2
Assay: cytotoxicity call (relative viability < 0.9)
Details: 10 µM
About 3,300 (8.5%) of roughly 39,000 compounds were called active. The entries come from a sample that favours actives as a whole.
Write down one outcome, taken from active, inactive

Some solved entries appear below for comparison.
Name the outcome recorded for "S=C(NCCCc1cnc[nH]1)NCCCN(Cc1ccc(Cl)c(Cl)c1)c1ccc(Br)cn1" in the assay.
active

Record: "COc1ccc(S(=O)(=O)N(C)C[C@@H]2OCCCC[C@@H](C)Oc3ccc(NC(=O)CCCCCC(=O)Nc4ccccc4N)cc3C(=O)N([C@H](C)CO)C[C@@H]2C)cc1"
inactive

Record: "C[C@@H]1CCCCO[C@@H](CN(C)C(=O)NC2CCCCC2)[C@H](C)CN([C@H](C)CO)C(=O)c2cc(NS(=O)(=O)c3ccc(Cl)cc3)ccc2O1"
inactive

Record: "COc1ccccc1CNC(=O)C[C@H]1C[C@@H]2c3cc(NC(=O)Nc4ccc(C(F)(F)F)cc4)ccc3O[C@@H]2[C@@H](CO)O1"
inactive

Record: "O=C(C[C@@H]1C[C@@H]2c3cc(NC(=O)Nc4ccc(C(F)(F)F)cc4)ccc3O[C@@H]2[C@H](CO)O1)NC1CCCCC1"
active

Record: "COc1ccc(CN(C)C[C@@H]2Oc3ccc(NC(=O)Cn4cnnn4)cc3CC(=O)N([C@H](C)CO)C[C@@H]2C)cc1"
inactive

Continue with the next molecule.
Name the outcome recorded for "C[C@H]1CCCCO[C@H](CN(C)Cc2ccncc2)[C@@H](C)CN([C@@H](C)CO)C(=O)c2cc(NC(=O)Nc3ccc(C(F)(F)F)cc3)ccc2O1" in the assay.
active

The reported measurements were obtained from the antibiotic and cytotoxicity screens of Wong et al. (2023).
